biological target: EZH2 (Homo sapiens (Human)); experiment: PRC2 enzyme assay on peptide substrates; assay type: biochemical; conditions: PRC2 enzyme assays on peptide substrates; 4 nM enzyme, 30 min preincubation at 25° C.; read-out: EZH2 IC50
pIC50: −log10 of the molar value.
ENDPOINT_NAME: pIC50

CCc1c(C)[nH]c(=O)c(CNC(=O)c2cc(C3CC(C)(C)NC(C)(C)C3)nc3c2cnn3C(C)C)c1C    5.00 to 5.52
COC(=O)/C=C/Cn1ncc2c(C(=O)NCc3c(C)cc(C)[nH]c3=O)cc(C3=CC(C)(C)NC(C)(C)C3)nc21    5.00 to 5.52
Cc1cc(C)c(CNC(=O)c2cc(-c3cccc(CN(C)CCN)c3)nc3c2cnn3C(C)C)c(=O)[nH]1    6.00 to 6.52
Cc1cc(C)c(CNC(=O)c2cc(CNCCN(C)C)cc3c2cnn3C2CCCC2)c(=O)[nH]1    6.00 to 6.52

###

target: EZH2 (Homo sapiens (Human)); test: PRC2 enzyme assay on peptide substrates; assay type: biochemical; conditions: PRC2 enzyme assays on peptide substrates; 4 nM enzyme, 30 min preincubation at 25° C.; read-out: EZH2 IC50
Reported IC50 by item:
ENDPOINT_NAME: IC50

Cc1cc(C)c(CNC(=O)c2cc(N3CCC(N)CC3)nc3c2cnn3C(C)C)c(=O)[nH]1 [Compound B-110]    1000 to 3000 nM
Cc1cc(C)c(CNC(=O)c2cc(C3=CCN(C4CCNCC4)CC3)nc3c2cnn3C(C)C)c(=O)[nH]1 [Compound B-38]    300 to 1000 nM
CCn1ncc2c(C(=O)NCc3c(C)cc(C)[nH]c3=O)cc(C3=CC(C)(C)NC(C)(C)C3)nc21 [Compound B-131]    3000 to 10000 nM

###

target: EZH2 (Homo sapiens (Human), UniProt Q15910); assay: PRC2 enzyme assay on peptide substrates; format: biochemical; details: PRC2 enzyme assays on peptide substrates; 4 nM enzyme, 30 min preincubation at 25° C.; read-out: EZH2 IC50
Sequence (Q15910 other isoform, or with tags, fused parts or gaps): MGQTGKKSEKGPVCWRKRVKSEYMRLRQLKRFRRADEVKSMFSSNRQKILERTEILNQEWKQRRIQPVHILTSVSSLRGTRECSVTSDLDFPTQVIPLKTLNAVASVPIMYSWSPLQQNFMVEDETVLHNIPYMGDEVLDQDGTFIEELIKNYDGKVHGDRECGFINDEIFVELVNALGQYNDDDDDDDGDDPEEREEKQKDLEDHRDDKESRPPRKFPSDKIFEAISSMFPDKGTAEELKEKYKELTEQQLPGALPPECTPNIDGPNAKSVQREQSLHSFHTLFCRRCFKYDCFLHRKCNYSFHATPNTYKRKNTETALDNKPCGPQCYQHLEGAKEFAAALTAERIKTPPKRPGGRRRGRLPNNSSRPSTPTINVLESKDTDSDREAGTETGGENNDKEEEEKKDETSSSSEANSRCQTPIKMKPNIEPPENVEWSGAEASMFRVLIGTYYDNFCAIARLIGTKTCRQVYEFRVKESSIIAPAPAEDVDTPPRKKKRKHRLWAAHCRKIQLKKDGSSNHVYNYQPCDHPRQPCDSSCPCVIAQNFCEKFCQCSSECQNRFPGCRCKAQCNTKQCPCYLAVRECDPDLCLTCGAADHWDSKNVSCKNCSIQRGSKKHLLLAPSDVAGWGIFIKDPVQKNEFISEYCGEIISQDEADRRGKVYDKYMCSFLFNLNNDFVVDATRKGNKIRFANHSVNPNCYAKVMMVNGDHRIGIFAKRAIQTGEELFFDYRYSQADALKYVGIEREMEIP
Sequence (O75530 whole entry partner): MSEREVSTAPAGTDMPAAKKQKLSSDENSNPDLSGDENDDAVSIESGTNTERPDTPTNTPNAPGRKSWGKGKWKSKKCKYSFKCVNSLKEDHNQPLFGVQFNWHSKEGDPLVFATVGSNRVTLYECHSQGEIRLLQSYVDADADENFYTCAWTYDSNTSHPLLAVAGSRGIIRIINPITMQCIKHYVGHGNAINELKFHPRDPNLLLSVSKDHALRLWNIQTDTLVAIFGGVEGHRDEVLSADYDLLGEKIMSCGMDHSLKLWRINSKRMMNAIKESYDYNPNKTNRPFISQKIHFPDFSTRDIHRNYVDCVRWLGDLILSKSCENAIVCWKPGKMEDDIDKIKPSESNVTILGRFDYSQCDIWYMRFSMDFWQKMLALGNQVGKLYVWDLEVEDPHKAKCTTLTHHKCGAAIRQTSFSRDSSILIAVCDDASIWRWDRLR
Sequence (Q15022 whole entry partner): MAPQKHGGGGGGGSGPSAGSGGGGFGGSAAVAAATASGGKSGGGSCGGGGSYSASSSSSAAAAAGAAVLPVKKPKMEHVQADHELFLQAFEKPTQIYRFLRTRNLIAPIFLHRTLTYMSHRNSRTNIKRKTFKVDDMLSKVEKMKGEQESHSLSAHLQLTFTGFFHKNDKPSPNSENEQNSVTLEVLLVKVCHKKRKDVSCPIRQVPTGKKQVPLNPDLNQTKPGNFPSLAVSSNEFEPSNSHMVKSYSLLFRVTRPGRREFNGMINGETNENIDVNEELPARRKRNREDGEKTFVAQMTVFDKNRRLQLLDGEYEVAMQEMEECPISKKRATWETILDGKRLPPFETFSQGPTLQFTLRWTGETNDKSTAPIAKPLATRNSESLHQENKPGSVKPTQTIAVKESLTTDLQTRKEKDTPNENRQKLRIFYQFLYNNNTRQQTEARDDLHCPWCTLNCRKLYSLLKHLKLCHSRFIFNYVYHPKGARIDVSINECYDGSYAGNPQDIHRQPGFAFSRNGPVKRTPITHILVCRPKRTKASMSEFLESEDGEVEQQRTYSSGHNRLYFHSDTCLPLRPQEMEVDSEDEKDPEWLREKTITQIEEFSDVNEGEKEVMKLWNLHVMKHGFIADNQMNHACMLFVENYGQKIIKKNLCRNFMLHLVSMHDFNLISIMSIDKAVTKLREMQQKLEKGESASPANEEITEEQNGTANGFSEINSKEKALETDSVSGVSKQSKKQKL
Sequence (Q09028 whole entry partner): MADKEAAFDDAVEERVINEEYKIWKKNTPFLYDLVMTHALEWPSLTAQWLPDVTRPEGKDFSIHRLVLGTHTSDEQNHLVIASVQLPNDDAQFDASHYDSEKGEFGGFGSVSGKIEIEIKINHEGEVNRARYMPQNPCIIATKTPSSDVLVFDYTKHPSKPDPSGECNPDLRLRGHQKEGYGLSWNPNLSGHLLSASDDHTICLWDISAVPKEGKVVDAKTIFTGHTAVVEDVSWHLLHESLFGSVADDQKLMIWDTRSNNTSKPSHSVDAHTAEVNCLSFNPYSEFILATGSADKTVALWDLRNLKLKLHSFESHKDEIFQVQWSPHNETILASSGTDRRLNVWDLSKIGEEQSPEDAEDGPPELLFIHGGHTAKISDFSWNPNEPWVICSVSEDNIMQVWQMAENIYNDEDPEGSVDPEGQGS
pIC50: −log10 of the molar value.
This section presents compounds with their documented pIC50 values.
ENDPOINT_NAME: pIC50

Cc1cc(C)c(CNC(=O)c2cc(C(F)(F)F)cc3c2cnn3C2CCCC2)c(=O)[nH]1    6.00 to 6.52
Cc1cc(C)c(CNC(=O)c2cc(Br)cc3c2cnn3C2CCN(C(=O)C3CCOCC3)CC2)c(=O)[nH]1    6.00 to 6.52
Cc1cc(C)c(CNC(=O)c2cc(C3=CC(C)(C)NC(C)(C)C3)nc3c2cnn3C(C)C)c(=O)[nH]1    6.00 to 6.52
CC(=O)c1cc(C(=O)NCc2c(C)cc(C)[nH]c2=O)c2cnn(C(C)C)c2n1    5.52 to 6.00
Cc1cc(C)c(CNC(=O)c2cc(Cl)cc3c2cnn3C2CCN(C(=O)C(C)(C)C)CC2)c(=O)[nH]1    > 6.52
Cc1cc(C)c(CNC(=O)c2cc(N3CCOCC3)nc3c2cnn3C(C)C)c(=O)[nH]1    5.52 to 6.00
Cc1cc(C)c(CNC(=O)c2cc(-c3ccc(N)nc3)nc3c2cnn3C(C)C)c(=O)[nH]1    5.52 to 6.00
Cc1cc(CN2CCC[C@@H]2C(N)=O)c(CNC(=O)c2cc(Br)cc3c2cnn3C2CCCC2)c(=O)[nH]1    5.52 to 6.00
CC1=CC(C)=C(CNC(=O)c2cc(-c3cccc(CNCCCN(C)C)c3)nc3c2cnn3C(C)C)C(C)N1 (stereo not shown)    5.52 to 6.00
Cc1cc(C)c(CNC(=O)c2cc(-c3cccc(C(=O)NCCCN(C)C)c3)nc3c2cnn3C(C)C)c(=O)[nH]1    > 6.52
Cc1cc(C)c(CNC(=O)c2cc(-c3ccc(CN(C)CCN)cc3)nc3c2cnn3C(C)C)c(=O)[nH]1    6.00 to 6.52
Cc1cc(C)c(CNC(=O)c2cc(C3=CCN(C(=O)CN)CC3)nc3c2cnn3C(C)C)c(=O)[nH]1    6.00 to 6.52
Cc1cc(C)c(CNC(=O)c2cc(-c3cnn(C)c3)nc3c2cnn3C(C)C)c(=O)[nH]1    5.52 to 6.00
Cc1cc(C)c(CNC(=O)c2cc(C3CCN(C(=O)[C@@H](N)CO)CC3)nc3c2cnn3C(C)C)c(=O)[nH]1    5.52 to 6.00
Cc1cc(C)c(CNC(=O)c2cc(C(C)C)cc3c2cnn3C2CCCC2)c(=O)[nH]1    6.00 to 6.52
CNCC(=O)N1CC=C(c2cc(C(=O)NCc3c(C)cc(C)[nH]c3=O)c3cnn(C4CCCC4)c3c2)CC1    > 6.52
